- procedureDetails: soluble fraction after stress (log2 fold change); higher = more stays soluble; pooled small domains, quantitative proteomics
- measurementParameters: stress: pH 4
Respond with 1.0 for soluble fraction (log2) values of -0.3 and above, 0.0 for values below.

Exercise: API: above_or_equal(metric=soluble fraction (log2), cutoff=-0.3) for item `HMSNMWVWSKLSGIQWMDAWEDRFHGNPNTVITRLKTNKTVRVEVYTETEQEALDIKKLFGGSIRKLV`
Solution: 1.0

----------
- procedureDetails: soluble fraction after stress (log2 fold change); higher = more stays soluble; pooled small domains, quantitative proteomics
- measurementParameters: stress: pH 4
Respond with TRUE for soluble fraction (log2) values of -0.03 and above, FALSE for values below.

Please review the entries below; each comes with its answer.
Exercise: API: above_or_equal(metric=soluble fraction (log2), cutoff=-0.03) for item `HMETGKLIKELRLKKGMTQEELADKTEVSSRTIQRIENGEVDPRAYTLQMIARALEVDYSLFME`
Solution: FALSE

Exercise: Also `HMPPDLSEAIQKRIEGKTDEALEILRKLYNEYPESTEIITMLGRTLLDAEEYALAAFRLEQALDLGG` ?
Solution: FALSE

Exercise: Also `HMKTEKYIQVISGTVNVRSGPGTSYAEIAKIDASQIYVVTAKEGEWLKISLANGTIGYVAGWLVKEVTG` ?
Solution: FALSE

Others:
Exercise: API: above_or_equal(metric=soluble fraction (log2), cutoff=-0.03) for item `HMSQNVSFTVDSGQAGLRLDVFLSQADPAFSRSQIKYAIEEGDVTVNGKEPKVSQHLKDGDIVELHLE`
Solution: TRUE

Exercise: Also `HMRQVFPNPSSSQIKLASSRIGQAFSILDQQGRVVLSGKVSEEAVIALENLAKGIYVLKIGSWSETILK` ?
Solution: TRUE

Exercise: Also `HMSVISVETAKSKALAHAGLTASKVTFIENKLEWDDGRQVYDIEFYTSDYKEYDYTIDAVSGQVLEFDY` ?
Solution: TRUE

----------
- procedureDetails: soluble fraction after stress (log2 fold change); higher = more stays soluble; pooled small domains, quantitative proteomics
- measurementParameters: stress: pH 4
# soluble fraction (log2) listing for each entry below
Note: the reply should be a number with no unit written.

Exercise: Which value of soluble fraction (log2) has been reported for `HMGLNNVSDILRLDFNSFKKKFDKLPSGYKNSVVEQAALMIKSGELDSIKIKDYIEKSMGIELDI` in the records?
Solution: -0.0393

Exercise: Also `HMPYLVNGFILEVQSDDNNPVGTLKRRYAVAKNKQGVILLEGEKSFSSNDQILINELKFYIQSNDLKA` ?
Solution: -1.39

Exercise: Also `HMSLDLERAVALLSLPRPVGNHPEDGELVEAGIGRYGPYVKHGSKYANLPDADEVFTIGMNRAVEVLAAK` ?
Solution: -0.261

Others:
Exercise: Which value of soluble fraction (log2) has been reported for `HMGVGERIKARRKEIGLSAEQVAKELGVSPATVYRYESNDIMNMRIDKLEPIAKALHTTPAYLMGWE` in the records?
Solution: 0.155

----------
# soluble fraction (log2) listing for each entry below
- procedureDetails: soluble fraction after stress (log2 fold change); higher = more stays soluble; pooled small domains, quantitative proteomics
- measurementParameters: stress: pH 4
Note: the reply should be a number with no unit written.

Please review the entries below; each comes with its answer.
Exercise: Which value of soluble fraction (log2) has been reported for `HMRIFDDNMIFPTEAEISAALKRLVMDLPKVGFLQGHGERAVDNVGERAYSMFTHANNFRYALINQGFVT` in the records?
Solution: -0.0562

Exercise: Also `HMSDESALIAAIEKAIAAQPETAEKVRNGHLPAAGALIGSVMKETKGQADAARVRELLLGLLGQ` ?
Solution: 0.0231

Exercise: Also `HMALSTRERMSFVLEVLKEKEFIPFVDLFSPEEGRAGVVVTFLALMELMKDSLIEIVQTKNFGEIHVRARL` ?
Solution: -1.07

We next turn to a different sequence, shown below.
Exercise: Which value of soluble fraction (log2) has been reported for `HMEIHQVEFGGKVISFVLERKPVKNVNLHIKPDMTVMVSANEKVPLDFILGFVKQKAAWILKNIQFFEDV` in the records?
Solution: -1.08

----------
- procedureDetails: soluble fraction after stress (log2 fold change); higher = more stays soluble; pooled small domains, quantitative proteomics
- measurementParameters: stress: pH 4
# soluble fraction (log2) listing for each entry below
Note: the reply should be a number with no unit written.

Exercise: Which value of soluble fraction (log2) has been reported for `HMSVFGDNVARLRAEHGMSQRALAERLEITNGTVAAWESRDTLPDYDRIRQIAEIFDVPIPQLFAKYIP` in the records?
Solution: -1.2

Exercise: Also `HMKYEFEFPYWSNKEAKHMIVTINYPNGTRATASIQDNDGSNPDYKRIMEEFGEEQIDANTEEGLKRR` ?
Solution: -0.816

Exercise: Also `HMSDPASLQRRLMSDPELTARILDSPFTRSLLDDPNLLRQMVNANPQLRRAMDANPQLRHAL` ?
Solution: -0.261

Exercise: Also `HMDYYSILGVDRNATGEDIKKAFKKKAMKYHPDRNPDNKESERKFKEAKEAYDTLSNPQKKSMYDQFGT` ?
Solution: 0.141

Exercise: Also `HMKKEETEAEELEEKFTSAQIKQAYGILNDPRYKQGNYSGAVNVINKIAPGLADHPDVKNALKRANEEL` ?
Solution: -0.323

----------
- procedureDetails: soluble fraction after stress (log2 fold change); higher = more stays soluble; pooled small domains, quantitative proteomics
- measurementParameters: stress: pH 4
Respond with Satisfied for soluble fraction (log2) values of 0.1 and above, Not satisfied for values below.

Please review the entries below; each comes with its answer.
Exercise: API: above_or_equal(metric=soluble fraction (log2), cutoff=0.1) for item `HMQKFINQEHEKAYNLMLEKDYQQALKIFDDLIYLFPNEANLLSDRGVIFIHLNKKEAALQDFDQAVF`
Solution: Not satisfied

Exercise: Also `HMDNPPDRAEIEQMLKDAGLTPEADAMAALSDLARTLDPGDFRQTLEKITLYKLGDSTPIGLDDIAAGAP` ?
Solution: Not satisfied

Exercise: Also `HMNLLSPREKQSLTLYASGLTLREVASELKLSPNSVGKFISRGKFKLNKSGAIVNSKTSIYLELKKRNLI` ?
Solution: Satisfied

Exercise: Also `HMGALAITPDFVGQTREEAERFLRDLDLSFDIGGKGDRILRQEPVAGQRMNLDQPMKLWVGSMNA` ?
Solution: Not satisfied

Exercise: Also `HMFRSTLEELKHQISGFLKANQSQEFTAQNLADGLRMTSIAEYKRVVNAMDALVRDGELTFDAGKYQYNPN` ?
Solution: Satisfied

Exercise: Also `HMSIAKIIGDRIRAYRNQKGWSQEYLAEKADVHHTYIGQLERGEKNATIESISKIAGALGVSLSRLFEN` ?
Solution: Satisfied

Exercise: Also `HMHTADDFKQLAKQTSNGQLRTRYLALYLFKNGETRTQIATYLGVARGSVNTWVSNYLAHGLEGLQSKP` ?
Solution: Not satisfied

# evaluate next
Exercise: API: above_or_equal(metric=soluble fraction (log2), cutoff=0.1) for item `HMGVGVKSTEVDYQRTSSGSDIPTDDAAWTKTIPAVKVNTFLWTRTKINYTDGTSAIFYSVGY`
Solution: Satisfied

----------
- procedureDetails: soluble fraction after stress (log2 fold change); higher = more stays soluble; pooled small domains, quantitative proteomics
- measurementParameters: stress: pH 4
Respond with YES for soluble fraction (log2) values of -0.5 and above, NO for values below.

Please review the entries below; each comes with its answer.
Exercise: API: above_or_equal(metric=soluble fraction (log2), cutoff=-0.5) for item `HMDGLGLGAVILAQRKRQGWTQEDLAARIGVSKGAVSKWETGQSYPDLPLVPRLAALFHITVDELLDYR`
Solution: YES

Exercise: Also `HMPKELAPYDILARYYLTVNNSKQSIALLEQYLDKAGSAPAALKAKLLLAGILYPSGNKERAEKLVEEVIK` ?
Solution: YES

Exercise: Also `HMVVQTELVRISITSLSGEDIRRLVQIKVVGATIEPFEGGGFLITGTAEQIAKAKDFLNSMSTEF` ?
Solution: NO

Exercise: Also `HMNSKMTYSELVTNITNKEVESIKISSTGSTASVKLKNSKSEKEVNIPSLDSFMSYTEEYLKTGDFTLDEE` ?
Solution: NO

Exercise: Also `HMGYTTSFVVQLKNAVSISFDEIDQNLRKLPGVEDVVIVEEAAMAYLKVDRQHFREEQLAHFEFVRQ` ?
Solution: NO

Others:
Exercise: API: above_or_equal(metric=soluble fraction (log2), cutoff=-0.5) for item `HMLDLVSIGKRIKAERQKNGLTQEALAERIEVSAHYVYELERGLKAMSVPILLRMSEVLHTSTDYLLF`
Solution: YES

Exercise: Also `HMGESYGPVRRGETLWSIAEKVKPAGVSTQKELAAIYAANPQAFIRGDINLLKAGAELRLPSPEAL` ?
Solution: YES
